Cited source for all entries: patent US10023559B2

Target: mouse TAAR1 (Mus musculus (Mouse), UniProt Q923Y8)
Sequence (Q923Y8 whole entry): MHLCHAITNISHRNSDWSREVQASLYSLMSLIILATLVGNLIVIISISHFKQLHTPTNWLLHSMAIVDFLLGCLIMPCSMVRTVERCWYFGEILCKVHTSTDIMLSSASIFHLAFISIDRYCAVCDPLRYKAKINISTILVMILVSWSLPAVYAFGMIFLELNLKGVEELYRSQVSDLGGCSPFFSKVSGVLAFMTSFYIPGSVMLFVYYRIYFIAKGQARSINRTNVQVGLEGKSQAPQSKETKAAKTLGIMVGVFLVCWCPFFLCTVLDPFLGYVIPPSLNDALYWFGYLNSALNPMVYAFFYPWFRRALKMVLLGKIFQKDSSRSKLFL
pKi: −log10 of the molar value.
Where pKi equals or exceeds 8, the correct label is 1; where it does not, the label is -1.

| Compound String | Tgt | Class Name |
| --- | --- | --- |
| Cc1cc(C(=O)Nc2ccc(C[C@H]3NC[C@H]3F)cc2)nc(C(F)(F)F)n1 | mouse TAAR1 (Mus musculus (Mouse), UniProt Q923Y8) | -1 |
| O=C(NCc1ccc(F)cc1)c1ccc(OC2CNC2)cc1 | mouse TAAR1 (Mus musculus (Mouse), UniProt Q923Y8) | -1 |
| COc1ccc(NC(=O)Nc2ccc(CC3CNC3)cc2)cc1 | mouse TAAR1 (Mus musculus (Mouse), UniProt Q923Y8) | -1 |
| COc1ccc(C[C@@H]2NC[C@@H]2F)cc1 | mouse TAAR1 (Mus musculus (Mouse), UniProt Q923Y8) | -1 |
| CCc1n[nH]c(C(=O)Nc2ccc(C[C@H]3NC[C@H]3F)cc2)c1C | mouse TAAR1 (Mus musculus (Mouse), UniProt Q923Y8) | -1 |
| CCOc1ccc(C(=O)Nc2ccc(C[C@@H]3NC[C@@H]3F)cc2)cn1 | mouse TAAR1 (Mus musculus (Mouse), UniProt Q923Y8) | 1 |
| O=C(Nc1ccc(OC2CNC2)cc1)c1[nH]nc(-c2ccc(Cl)cc2)c1Cl | mouse TAAR1 (Mus musculus (Mouse), UniProt Q923Y8) | 1 |
| O=C(Nc1ccc(CC2(F)CNC2)cc1)c1n[nH]c(C2CC2)c1Cl | mouse TAAR1 (Mus musculus (Mouse), UniProt Q923Y8) | 1 |
| O=C(Nc1ccc(OC2CNC2)cc1F)c1cnc(C2CC2)nc1 | mouse TAAR1 (Mus musculus (Mouse), UniProt Q923Y8) | -1 |
| COc1ccc(C[C@@H]2NC[C@H]2F)cc1 | mouse TAAR1 (Mus musculus (Mouse), UniProt Q923Y8) | -1 |
| COc1ccc(NC(=O)Nc2ccc(C=C3CNC3)cc2)cc1 | mouse TAAR1 (Mus musculus (Mouse), UniProt Q923Y8) | -1 |
| Cc1cc(C(=O)Nc2ccc(C[C@@H]3NC[C@@H]3F)cc2)nc(C(F)(F)F)n1 | mouse TAAR1 (Mus musculus (Mouse), UniProt Q923Y8) | -1 |
| COc1ccc(NC(=O)Nc2ccc(SC3CNC3)cc2)cc1 | mouse TAAR1 (Mus musculus (Mouse), UniProt Q923Y8) | -1 |
| O=C(Nc1ccc(C[C@H]2CCN2)cc1)c1ccc(Cl)cc1 | mouse TAAR1 (Mus musculus (Mouse), UniProt Q923Y8) | 1 |
| O=C(Nc1ccc(OC2CNC2)cc1)c1ccc(Cl)cc1 | mouse TAAR1 (Mus musculus (Mouse), UniProt Q923Y8) | 1 |
| F[C@@H]1CN[C@@H]1Cc1ccccc1 | mouse TAAR1 (Mus musculus (Mouse), UniProt Q923Y8) | -1 |
| FC1(Cc2ccccc2)CNC1 | mouse TAAR1 (Mus musculus (Mouse), UniProt Q923Y8) | -1 |
| CO[C@H]1CN[C@@H]1Cc1ccccc1 | mouse TAAR1 (Mus musculus (Mouse), UniProt Q923Y8) | -1 |
| O=C(Nc1cc(F)c(C=C2CNC2)c(F)c1)c1ccc(Cl)nc1 | mouse TAAR1 (Mus musculus (Mouse), UniProt Q923Y8) | 1 |
| O=C(Nc1ccc(CC2(F)CNC2)cc1)Nc1ccc(C(F)(F)F)cc1 | mouse TAAR1 (Mus musculus (Mouse), UniProt Q923Y8) | 1 |
| O=C(Nc1ccc(C(F)(F)C2CNC2)cc1)c1ccc(Cl)cc1 | mouse TAAR1 (Mus musculus (Mouse), UniProt Q923Y8) | 1 |
| O=C(Nc1ccc(C[C@H]2CCN2)cc1)c1cnc(C(F)(F)F)nc1 | mouse TAAR1 (Mus musculus (Mouse), UniProt Q923Y8) | -1 |
| COc1ccc(C[C@H]2NC[C@@H]2F)cc1 | mouse TAAR1 (Mus musculus (Mouse), UniProt Q923Y8) | -1 |
| O=C(Nc1ccc(C[C@@H]2CCN2)cc1)c1cnc(C(F)(F)F)nc1 | mouse TAAR1 (Mus musculus (Mouse), UniProt Q923Y8) | -1 |
| CCOc1ccc(C(=O)Nc2ccc(OC3CNC3)cc2)nn1 | mouse TAAR1 (Mus musculus (Mouse), UniProt Q923Y8) | -1 |
| CC(C)c1cc(C(=O)Nc2ccc(C[C@@H]3NC[C@@H]3F)cc2)n(C)n1 | mouse TAAR1 (Mus musculus (Mouse), UniProt Q923Y8) | -1 |
| O=C(Nc1ccc(Cl)nc1)c1ccc(OC2CNC2)cc1 | mouse TAAR1 (Mus musculus (Mouse), UniProt Q923Y8) | -1 |

----------
Target: rat TAAR1 (Rattus norvegicus (Rat), UniProt Q923Y9)
Sequence (Q923Y9 whole entry): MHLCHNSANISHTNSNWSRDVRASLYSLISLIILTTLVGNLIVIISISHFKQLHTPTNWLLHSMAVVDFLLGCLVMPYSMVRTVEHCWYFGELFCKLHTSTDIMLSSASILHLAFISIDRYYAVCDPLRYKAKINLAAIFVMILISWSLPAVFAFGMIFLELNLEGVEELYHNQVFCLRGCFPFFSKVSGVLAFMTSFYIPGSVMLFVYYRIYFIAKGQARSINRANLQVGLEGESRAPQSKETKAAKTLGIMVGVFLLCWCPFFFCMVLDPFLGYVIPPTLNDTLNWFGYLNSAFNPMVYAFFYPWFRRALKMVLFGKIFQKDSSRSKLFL
Assay: Radioligand binding assay on rat TAAR1
Conditions: read-out: Ki(μM) rat; rat TAAR1, HEK-293 membranes, second value of cell pair mouse/rat
Values of Ki strictly less than 0.04 µM map to 1.0, and values of at least 0.04 µM map to 0.0.

| Compound | Tgt | Class Name |
| --- | --- | --- |
| Cn1nc(C(=O)Nc2ccc(OC3CNC3)cc2)c(Cl)c1C(F)(F)F [Example 43] | rat TAAR1 (Rattus norvegicus (Rat), UniProt Q923Y9) | 0.0 |
| FC(F)(c1ccc(Br)cc1)C1CNC1 [Example 49] | rat TAAR1 (Rattus norvegicus (Rat), UniProt Q923Y9) | 0.0 |
| O=C(Nc1ccc(OC2CNC2)cc1)c1[nH]nc(C2CC2)c1F [Example 42] | rat TAAR1 (Rattus norvegicus (Rat), UniProt Q923Y9) | 0.0 |
| CCOc1ccc(C(=O)Nc2ccc(C[C@H]3NC[C@H]3F)cc2)cn1 [Example 122] | rat TAAR1 (Rattus norvegicus (Rat), UniProt Q923Y9) | 0.0 |
| O=C(Nc1ccc(C[C@@H]2CCN2)cc1)c1ccc(Cl)cc1 [Example 72] | rat TAAR1 (Rattus norvegicus (Rat), UniProt Q923Y9) | 0.0 |
| O=C(Nc1ccc(CC2CNC2)cc1)c1ccc(Cl)nc1 [Example 64] | rat TAAR1 (Rattus norvegicus (Rat), UniProt Q923Y9) | 0.0 |
| O=C(Nc1ccc(OC2CNC2)cc1)c1cc(C(F)(F)F)n[nH]1 [Example 24] | rat TAAR1 (Rattus norvegicus (Rat), UniProt Q923Y9) | 0.0 |
| O=C(Nc1ccc(C[C@H]2CCN2)cc1)c1ccc(Cl)cc1 [Example 71] | rat TAAR1 (Rattus norvegicus (Rat), UniProt Q923Y9) | 1.0 |
| O=C(Nc1ccc(OC2CNC2)cc1)c1[nH]nc(C2CC2)c1Br [Example 31] | rat TAAR1 (Rattus norvegicus (Rat), UniProt Q923Y9) | 1.0 |
| CCc1ncc(C(=O)Nc2ccc(OC3CNC3)cc2)cn1 [Example 15] | rat TAAR1 (Rattus norvegicus (Rat), UniProt Q923Y9) | 0.0 |
| O=C(Nc1ccc(C[C@H]2NC[C@H]2F)cc1)c1cnc(C2CC2)nc1 [Example 124] | rat TAAR1 (Rattus norvegicus (Rat), UniProt Q923Y9) | 0.0 |
| O=C(Nc1ccc(OC2CNC2)cc1)c1[nH]nc(C(F)(F)F)c1Cl [Example 40] | rat TAAR1 (Rattus norvegicus (Rat), UniProt Q923Y9) | 1.0 |
| O=C(Nc1ccc(OC2CNC2)c(F)c1)c1[nH]nc(C2CC2)c1Cl [Example 25] | rat TAAR1 (Rattus norvegicus (Rat), UniProt Q923Y9) | 1.0 |
| O=C(Nc1ccc(CC2(F)CNC2)cc1)c1cnc(C(F)(F)F)nc1 [Example 55] | rat TAAR1 (Rattus norvegicus (Rat), UniProt Q923Y9) | 1.0 |
| O=C(NCc1ccc(F)cc1)c1ccc(OC2CNC2)cc1 [Example 18] | rat TAAR1 (Rattus norvegicus (Rat), UniProt Q923Y9) | 0.0 |
| O=C(Nc1ccc(C=C2CNC2)c(F)c1)c1ccc(Cl)nc1 [Example 86] | rat TAAR1 (Rattus norvegicus (Rat), UniProt Q923Y9) | 1.0 |
| COc1ccc(NC(=O)Nc2ccc(SC3CNC3)cc2)cc1 [Example 111] | rat TAAR1 (Rattus norvegicus (Rat), UniProt Q923Y9) | 0.0 |
| O=C(Nc1ccc(C[C@@H]2CCN2)cc1)c1cnc(C(F)(F)F)nc1 [Example 78] | rat TAAR1 (Rattus norvegicus (Rat), UniProt Q923Y9) | 0.0 |
| F[C@@H]1CN[C@@H]1Cc1ccccc1 [Example 92, (2R,3R)-2-benzyl-3-fluoroazetidine] | rat TAAR1 (Rattus norvegicus (Rat), UniProt Q923Y9) | 0.0 |
| FC(F)(F)c1nccc(Nc2ccc(C=C3CNC3)cc2)n1 [Example 62] | rat TAAR1 (Rattus norvegicus (Rat), UniProt Q923Y9) | 1.0 |
| O=C(Nc1ccc(CC2CNC2)cc1)Nc1cccc(Cl)c1 [Example 115] | rat TAAR1 (Rattus norvegicus (Rat), UniProt Q923Y9) | 1.0 |
| O=C(Nc1ccc(OC2CNC2)cc1)c1nn(CC(F)(F)F)cc1Cl [Example 21] | rat TAAR1 (Rattus norvegicus (Rat), UniProt Q923Y9) | 1.0 |
| F[C@@H]1CN[C@H]1Cc1ccccc1 [Example 91, (2S,3R)-2-benzyl-3-fluoroazetidine] | rat TAAR1 (Rattus norvegicus (Rat), UniProt Q923Y9) | 0.0 |
| CCc1cc(C(=O)Nc2cc(F)c(C=C3CNC3)c(F)c2)nc(C(F)(F)F)n1 [Example 87] | rat TAAR1 (Rattus norvegicus (Rat), UniProt Q923Y9) | 1.0 |
| O=C(Nc1ccc(C(F)(F)C2CNC2)cc1)c1ccc(Cl)cc1 [Example 51] | rat TAAR1 (Rattus norvegicus (Rat), UniProt Q923Y9) | 0.0 |
| Cn1nc(C(F)(F)F)cc1C(=O)Nc1ccc(OC2CNC2)cc1 [Example 17] | rat TAAR1 (Rattus norvegicus (Rat), UniProt Q923Y9) | 0.0 |
| CCc1n[nH]c(C(=O)Nc2cc(F)c(C=C3CNC3)c(F)c2)c1C [Example 83] | rat TAAR1 (Rattus norvegicus (Rat), UniProt Q923Y9) | 1.0 |
| O=C(Nc1ccc(CC2(F)CNC2)cc1)c1cnc(C(F)(F)F)cn1 [Example 70] | rat TAAR1 (Rattus norvegicus (Rat), UniProt Q923Y9) | 1.0 |
| O=C(Nc1ccc(SC2CNC2)cc1)c1cnc(C(F)(F)F)nc1 [Example 45] | rat TAAR1 (Rattus norvegicus (Rat), UniProt Q923Y9) | 0.0 |
| O=C(Nc1ccc(Cl)nc1)c1ccc(OC2CNC2)cc1Cl [Example 53] | rat TAAR1 (Rattus norvegicus (Rat), UniProt Q923Y9) | 0.0 |
| O=C(Nc1ccc(OC2CNC2)cc1F)c1cnc(C2CC2)nc1 [Example 38] | rat TAAR1 (Rattus norvegicus (Rat), UniProt Q923Y9) | 0.0 |
| O=C(Nc1ccc(OC2CNC2)cc1)Nc1cccc(Cl)c1 [Example 109] | rat TAAR1 (Rattus norvegicus (Rat), UniProt Q923Y9) | 1.0 |
| COC1(Cc2ccc(NC(=O)c3cnc(C(F)(F)F)nc3)cc2)CNC1 [Example 74] | rat TAAR1 (Rattus norvegicus (Rat), UniProt Q923Y9) | 0.0 |
| CCc1n[nH]c(C(=O)Nc2ccc(OC3CNC3)cc2)c1Br [Example 47] | rat TAAR1 (Rattus norvegicus (Rat), UniProt Q923Y9) | 0.0 |
| CC(C)c1n[nH]c(C(=O)Nc2ccc(OC3CNC3)cc2)c1Cl [Example 33] | rat TAAR1 (Rattus norvegicus (Rat), UniProt Q923Y9) | 1.0 |
| CC(C)c1cc(C(=O)Nc2ccc(C[C@H]3NC[C@H]3F)cc2)[nH]n1 [Example 125] | rat TAAR1 (Rattus norvegicus (Rat), UniProt Q923Y9) | 0.0 |
| O=C(Nc1ccc(CC2(F)CNC2)cc1)c1cnc(OCC(F)(F)F)cn1 [Example 57] | rat TAAR1 (Rattus norvegicus (Rat), UniProt Q923Y9) | 1.0 |
| O=C(Nc1ccc(C=C2CNC2)cc1)c1ccc(Cl)cc1 [Example 61] | rat TAAR1 (Rattus norvegicus (Rat), UniProt Q923Y9) | 0.0 |
